Biological target: T1, human Nectin-4 extracellular antigen hNectin-4-His (human, UniProt Q96NY8 32-349)
T1 construct: C-terminal 8xHis tag included
T1 sequence: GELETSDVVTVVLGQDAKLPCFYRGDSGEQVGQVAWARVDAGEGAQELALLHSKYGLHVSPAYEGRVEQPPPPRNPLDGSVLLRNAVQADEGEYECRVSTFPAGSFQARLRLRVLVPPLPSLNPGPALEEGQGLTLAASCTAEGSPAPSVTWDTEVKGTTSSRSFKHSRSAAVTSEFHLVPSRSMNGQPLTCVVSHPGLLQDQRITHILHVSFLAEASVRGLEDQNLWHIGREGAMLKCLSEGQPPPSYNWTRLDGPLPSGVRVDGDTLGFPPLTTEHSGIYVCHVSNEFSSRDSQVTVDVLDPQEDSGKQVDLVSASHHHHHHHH
Test: ELISA, phage scFv supernatant 1:50
Would you kindly list OD value for each of these binders?
Numbers only, in OD.

Below: 2 binders and their reported OD value.
binder	OD value [OD]
1G8-2A4 scFv (scFv, V domains shown, phage clone supernatant) VH: EVQLVESGGGLVQPGGSLRLSCAASGDTFSSNAMSWVRQAPGKGLEWVSRIYGGSWDTDYADSVKGRFTISRDNSKNTLYLQMNSLRAEDTAVYYCARQTEDRSYGYDLDYWGQGTLVTVSS VL: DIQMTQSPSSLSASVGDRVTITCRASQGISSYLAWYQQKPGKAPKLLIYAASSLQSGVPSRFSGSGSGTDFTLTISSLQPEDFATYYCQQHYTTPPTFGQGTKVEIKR	1.54
1G8-1H1 scFv (scFv, V domains shown, phage clone supernatant) VH: EVQLVESGGGLVQPGGSLRLSCAASGDTFSGYAMSWVRQAPGKGLEWVSRIYPYSSVRDYADSVKGRFTISRDNSKNTLYLQMNSLRAEDTAVYYCARQTEDRSYGYDLDYWGQGTLVTVSS VL: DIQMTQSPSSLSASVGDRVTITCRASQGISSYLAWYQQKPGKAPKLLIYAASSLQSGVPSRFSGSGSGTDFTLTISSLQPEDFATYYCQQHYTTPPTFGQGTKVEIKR	1.4

Now examine the next entry.
Field OD value (entry 10F4-2H5 scFv (scFv, V domains shown, phage clone supernatant) VH: EVQLVESGGGLVQPGGSLRLSCAASGYIFTNYWMSWVRQAPGKGLEWVSSIDQGSGNIFYADSVKGRFTISRDNSKNTLYLQMNSLRAEDTAVYYCAREYSDVVDYVSVRTPLDYWGQGTLVTVSS VL: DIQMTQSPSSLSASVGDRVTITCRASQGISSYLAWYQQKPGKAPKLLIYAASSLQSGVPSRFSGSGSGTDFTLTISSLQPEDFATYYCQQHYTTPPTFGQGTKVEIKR ) reads 1.44
